tested.on: Adenosine receptor A2a (Homo sapiens, UniProt P29274)
Sequence (P29274 whole entry): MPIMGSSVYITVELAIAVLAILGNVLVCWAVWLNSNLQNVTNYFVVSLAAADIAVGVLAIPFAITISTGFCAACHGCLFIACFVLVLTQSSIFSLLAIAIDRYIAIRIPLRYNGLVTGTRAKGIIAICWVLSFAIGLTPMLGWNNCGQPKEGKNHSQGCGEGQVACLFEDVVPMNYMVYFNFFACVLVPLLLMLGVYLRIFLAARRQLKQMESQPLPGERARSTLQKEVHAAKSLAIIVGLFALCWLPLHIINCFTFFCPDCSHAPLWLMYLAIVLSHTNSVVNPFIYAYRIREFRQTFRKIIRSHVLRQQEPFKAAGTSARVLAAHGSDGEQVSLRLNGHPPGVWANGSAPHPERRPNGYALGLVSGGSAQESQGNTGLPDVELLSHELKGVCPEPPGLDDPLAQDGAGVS
procedure.details: Displacement of [3H]CGS21680 from human recombinant adenosine A2A receptor expressed in HEK293 cells at 10 uM by liquid scintillation counting
Assay type: cell-based
Here, each record is paired with measured inhibition data.

[
  {
    "compound": "CNC(=O)[C@@]12C[C@@H]1[C@@H](n1cnc3c(NCc4cccc(Cl)c4)nc(C#CCCCCc4cn(-c5ccc(C(=O)O)cc5)nn4)nc31)[C@H](O)[C@@H]2O",
    "tested.on": "Adenosine receptor A2a (Homo sapiens, UniProt P29274)",
    "inhibition, %": 40
  },
  {
    "compound": "CNC(=O)[C@@]12C[C@@H]1[C@@H](n1cnc3c(NCc4cccc(Cl)c4)nc(C#CCCCCc4cn(-c5ccc(N=C=S)cc5)nn4)nc31)[C@H](O)[C@@H]2O",
    "tested.on": "Adenosine receptor A2a (Homo sapiens, UniProt P29274)",
    "inhibition, %": 28
  },
  {
    "compound": "CNC(=O)[C@@]12C[C@@H]1[C@@H](n1cnc3c(NCc4cccc(Cl)c4)nc(C#CCCCCc4cn(Cc5ccc(-n6sccc6=O)cc5)nn4)nc31)[C@H](O)[C@@H]2O",
    "tested.on": "Adenosine receptor A2a (Homo sapiens, UniProt P29274)",
    "inhibition, %": 49
  },
  {
    "compound": "CNC(=O)[C@@]12C[C@@H]1[C@@H](n1cnc3c(NCc4cccc(Cl)c4)nc(C#CCCC(=O)NCCNC(=O)CCCCCNC(=O)CCCCC4SCC5NC(=O)NC54)nc31)[C@H](O)[C@@H]2O (stereo partly drawn)",
    "tested.on": "Adenosine receptor A2a (Homo sapiens, UniProt P29274)",
    "inhibition, %": 47
  },
  {
    "compound": "CNC(=O)[C@@]12C[C@@H]1[C@@H](n1cnc3c(NCc4cccc(Cl)c4)nc(C#CCCCCc4cn(CCCCCCNC5SCC6NC(=O)NC65)nn4)nc31)[C@H](O)[C@@H]2O (stereo partly drawn)",
    "tested.on": "Adenosine receptor A2a (Homo sapiens, UniProt P29274)",
    "inhibition, %": 27
  },
  {
    "compound": "CNC(=O)[C@@]12C[C@@H]1[C@@H](n1cnc3c(NCc4cccc(Cl)c4)nc(C#CCCC(=O)NCCNC(=O)CCCCC4SCC5NC(=O)NC54)nc31)[C@H](O)[C@@H]2O (stereo partly drawn)",
    "tested.on": "Adenosine receptor A2a (Homo sapiens, UniProt P29274)",
    "inhibition, %": 51
  },
  {
    "compound": "CNC(=O)[C@@]12C[C@@H]1[C@@H](n1cnc3c(NCc4cccc(Cl)c4)nc(C#CCCCCc4cn(CCCCCCNC(=O)c5ccc(-c6c7ccc(=N)c(S(=O)(=O)O)c-7oc7c(S(=O)(=O)O)c(N)ccc67)c(C(=O)O)c5)nn4)nc31)[C@H](O)[C@@H]2O",
    "tested.on": "Adenosine receptor A2a (Homo sapiens, UniProt P29274)",
    "inhibition, %": 23
  },
  {
    "compound": "CNC(=O)[C@@]12C[C@@H]1[C@@H](n1cnc3c(NCc4cccc(Cl)c4)nc(-c4nnn(-c5ccc(N=C=S)cc5)c4CCCCc4cn(-c5ccc(N=C=S)cc5)nn4)nc31)[C@H](O)[C@@H]2O",
    "tested.on": "Adenosine receptor A2a (Homo sapiens, UniProt P29274)",
    "inhibition, %": 40
  }
]
